Please go through the items and note down their DGI-2 (OD).
Biological target: T1, DGI-2 polypeptide (UniProt Q15004 1-111, limits assumed)
T1 construct: Soluble recombinant protein coated at 500 ng/well; vector tag of pIVEX2.3-MCS not described for this construct; also called KIAA0101
T1 sequence (looked up): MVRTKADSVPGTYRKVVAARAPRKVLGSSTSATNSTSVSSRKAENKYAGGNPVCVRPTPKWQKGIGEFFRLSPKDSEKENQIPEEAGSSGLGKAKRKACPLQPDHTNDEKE
Assay: phage ELISA

Item ERVSKCVGRGSGRSVGQFGGAAAGAPVPYPDPLEPRP [DGI-2-20F-PP-F1] has what recorded DGI-2 (OD)?
3 OD

Cool, now EVFVSVWVFRFRVMPVTPGGTAAAGAPVPYPDPLEPRP [DGI-2-20F-PP-E6]
3 OD

Then what about the binder CGGWGAMWEAWVQGLNGAGCAAAGAPVPYPDPLEPRP [DGI-2-20R-3-D4] ?
8.7 OD

Further, for GWSDFVATGSWSGQVSAALNAAAGAPVPYPDPLEPRP [DGI-2-20R-4-F120] ?
13.6 OD

// repeat for WGCVFRQWASGSGAGCARRHAAAGAPVPYPDPLEPRP [DGI-2-20R-3-D9] and report
6.7 OD

Same lookup for LWRRWSEGQLLGDGELRGDGAAAGAPVPYPDPLEPRP [DGI-2-20R-3-B52] , please.
8.7 OD

Please give the result for MFQDVACDLWHSVRCLRRDVAAAGAPVPYPDPLEPRP [DGI-2-20R-3-B3] too.
4.9 OD

Item: PVYRVAMCRISVGCSAGAWFAAAGAPVPYPDPLEPRP [DGI-2-20F-PP-C12]
2.5 OD

Repeat for the following binder: SLLCVVCRPVSGGRALGGVPAAAGAPVPYPDPLEPRP [DGI-2-20F-PP-B42]
2.4 OD

Now the same for LSLEGGWMWDTKGGDGGSAQAAAGAPVPYPDPLEPRP [DGI-2-20R-4-F93]
9 OD

Same read-out for YAMSSRECGIRNSGLILSMWAAAGAPVPYPDPLEPRP [DGI-2-20F-PP-C9] ?
3.5 OD

Also GAIRLSGAAWTASRTGGRASAAAGAPVPYPDPLEPRP [DGI-2-20F-PP-E7] , if possible.
1.6 OD

Continue with DGI-2-40F-3-C8 (peptide) peptide: YGTAGLFLRRACTMSDPGDPLGRRGYTGWGVLWDEWVTGSAAAGAPVPYPDPLEPRP
5.7 OD

Field entry: LPQSRWLSEAWASWVDGVVDAAAGAPVPYPDPLEPRP [DGI-2-20F-4-F9]
5.6 OD

Proceed to RRGVCEIFTGWCVGQTNERPAAAGAPVPYPDPLEPRP [DGI-2-20R-4-H626]
9.6 OD

// query: GSTRLRVTVRFCSETGTPGCAAAGAPVPYPDPLEPRP [DGI-2-20F-PP-G6]
2.7 OD

Request: RISVGQCGTSRCGGGRRGGGAAAGAPVPYPDPLEPRP [DGI-2-20F-PP-D1]
2 OD
